- Tested on: U-251
- experiment-description: NCI tumour cell line growth inhibition, 48 h
Active and inactive are the calls of the source. No stated cut-off is given here; in the data, active = GI50 up to about 1.1 µM and inactive = higher.
A collection of compounds and their measured GI50

# annotated cases, reported GI50 shown
{"compound": "CC(=O)OC1CC2C(C)(C)C(=O)C=C[C@]2(C)C2CCC3(C)C(=CCC3[C@H](CO)C[C@H](O)C(=O)C(C)(C)O)[C@]12C (stereo partly specified)", "parameter": "GI50", "readout-value": "16.7 µM (inactive)"}
{"compound": "C1=C(c2ccccc2)SC=C(c2ccccc2)S1", "parameter": "GI50", "readout-value": "38.4 µM (inactive)"}
{"compound": "CCOC1=C2N=C(Cc3ccccc3F)N=C2C(=O)c2ccccc21", "parameter": "GI50", "readout-value": "> 100 µM (inactive)"}
{"compound": "N#Cc1nc(/C=C/c2cccnc2)oc1N", "parameter": "GI50", "readout-value": "> 100 µM (inactive)"}
{"compound": "Cc1ccc(S(=O)(=O)ON2C(=O)c3c(N)c(C#N)c(-c4ccccc4)c(-c4ccccc4)c3C2=O)cc1", "parameter": "GI50", "readout-value": "16.2 µM (inactive)"}
{"compound": "C(=C\\N1CCCCC1)/c1nnnn1-c1ccccc1", "parameter": "GI50", "readout-value": "21.1 µM (inactive)"}
{"compound": "COc1ccc(O)c2c1C(=O)CCCC2=O", "parameter": "GI50", "readout-value": "> 100 µM (inactive)"}
{"compound": "N#Cc1ccc(-n2c3ccccc3c3ccc4c(c32)C(=O)C=CC4=O)cc1", "parameter": "GI50", "readout-value": "4.56 µM (inactive)"}
{"compound": "NCCN1C(=O)c2cc(Cl)c(Cl)cc2C1(O)c1ccc(Cl)cc1 (stereo unspecified)", "parameter": "GI50", "readout-value": "1.74 µM (inactive)"}
{"compound": "CN1C(=S)C(c2ccccc2)Sc2ccccc21 (stereo unspecified)", "parameter": "GI50", "readout-value": "> 100 µM (inactive)"}

Please examine the following record next.
Q) Entry under review: CCCc1c(-c2ccccc2)[nH]c2ccccc2c1=O . Reported GI50?
A) 51.3 µM (inactive)
